meta.source: patent US4094966A

Test system: femoral artery
assayExplanation: Effect on the femoral rate of flow (peripheral vasodilatation)
Format: in vivo, mongrels
conditionDescription: 1.5 ml into collateral of femoral artery; 28% I, Mgl salt
propertyName: Peripheral vasodilatation, femoral rate of flow

Tell me the measured Peripheral vasodilatation, femoral rate of flow of CNC(=O)c1c(I)c(NC(C)=O)c(I)c(C(=O)NCC(=O)N(C)c2c(I)c(C(=O)O)c(I)c(C(=O)NC)c2I)c1I , please. +

Same question for CNC(=O)c1c(I)c(NC(=O)CCCNC(=O)c2c(I)cc(I)c(N(C)C(C)=O)c2I)c(I)c(C(=O)O)c1I please. ++++

Repeat with CNC(=O)c1c(I)c(NC(C)=O)c(I)c(C(=O)NCC(=O)Nc2c(I)c(C(=O)O)c(I)c(C(=O)NCCO)c2I)c1I +
